Target: T1, human MSLN-R2-his protein (human, UniProt Q13421 391-486)
T1 construct: Region 2 of human mesothelin, made in HEK293E cells, His-tagged; also called human MSLN-R2 protein; hMSLN-R2-his; not shown: His tag
T1 sequence (Q13421 other isoform, or with tags, fused parts or gaps): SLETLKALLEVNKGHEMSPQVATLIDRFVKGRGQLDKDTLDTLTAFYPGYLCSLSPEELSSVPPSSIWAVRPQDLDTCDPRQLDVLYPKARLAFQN
Assay: ELISA on coated MSLN-R2; antibody 0.0001 nM
assayReadout: OD450 (OD450)
Your answer is read as OD450, so omit the unit and give the number.

Ask | Look up OD450 for this binder: S009-F8-32.3 (antibody, human IgG1, kappa, V domains shown) VH: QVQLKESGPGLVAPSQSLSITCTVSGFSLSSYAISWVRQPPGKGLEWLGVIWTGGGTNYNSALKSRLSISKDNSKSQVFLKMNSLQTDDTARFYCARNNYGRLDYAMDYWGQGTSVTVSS VL: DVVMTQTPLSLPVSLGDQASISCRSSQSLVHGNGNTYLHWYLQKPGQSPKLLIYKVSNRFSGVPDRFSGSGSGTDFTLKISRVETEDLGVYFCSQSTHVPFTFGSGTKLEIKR
Reply | 0.04

Ask | Would you mind doing S009-F8-8.22 (antibody, human IgG1, kappa, V domains shown) VH: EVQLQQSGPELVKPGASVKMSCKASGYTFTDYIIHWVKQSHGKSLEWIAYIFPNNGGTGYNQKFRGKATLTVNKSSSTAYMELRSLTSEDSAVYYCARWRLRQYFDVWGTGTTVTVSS VL: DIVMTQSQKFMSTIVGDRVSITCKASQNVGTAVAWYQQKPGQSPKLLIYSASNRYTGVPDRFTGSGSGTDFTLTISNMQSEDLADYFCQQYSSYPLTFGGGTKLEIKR as well?
Reply | 0.05
